Test system: HEK-293T
PROTOCOL NOTES: Cytotoxicity against human 293T cells at 10 uM after 48 hrs
Format: cell-based
QUANTITY: Activity

COMPOUND: C[C@@H]1CC[C@H]2C(C)(C)[C@H](O)CC[C@]2(C)[C@@]12Cc1c(O)cc3c(c1O2)CN(CCCCCN1Cc2c(cc(O)c4c2O[C@]2(C4)[C@H](C)CC[C@H]4C(C)(C)[C@H](O)CC[C@@]42C)C1=O)C3=O
Activity: Non-toxic
//
COMPOUND: Cc1cc(O)c2c(c1C=O)O[C@]1(C2)[C@H](C)CC[C@H]2C(C)(C)[C@H](O)CC[C@@]21C
Activity: Non-toxic
//
COMPOUND: C[C@@H]1CC[C@H]2C(C)(C)[C@H](O)CC[C@]2(C)[C@@]12Cc1c(O)cc(CO[C@H]3O[C@H](CO)[C@@H](O)[C@H](O)[C@H]3O)c(C=O)c1O2
Activity: Non-toxic
//
COMPOUND: COC(=O)CC[C@@H](C(=O)O)N1Cc2c(cc(O)c3c2O[C@]2(C3)[C@H](C)CC[C@H]3C(C)(C)[C@H](O)CC[C@@]32C)C1=O
Activity: Non-toxic
//
COMPOUND: CC(=O)CN1Cc2c(cc(O)c3c2O[C@]2(C3)[C@H](C)CC[C@H]3C(C)(C)[C@H](O)CC[C@@]32C)C1=O
Activity: Non-toxic
//
COMPOUND: C[C@@H]1CC[C@H]2C(C)(C)[C@H](O)CC[C@]2(C)[C@@]12Cc1c(O)cc3c(c1O2)CN([C@@H](CCC(=O)O)C(=O)O)C3=O
Activity: Non-toxic

Q. # value lookup — system HEK-293T, readout Activity, item C[C@@H]1CC[C@H]2C(C)(C)[C@H](O)C(O)C[C@]2(C)[C@@]12Cc1c(O)cc(CO)c(C=O)c1O2 (stereo partly specified)
A. Non-toxic

Q. Try the compound C[C@@H]1CC[C@H]2C(C)(C)[C@H](O)CC[C@]2(C)[C@@]12Cc1c(O)cc3c(c1O2)CN(CCCCN1Cc2c(cc(O)c4c2O[C@]2(C4)[C@H](C)CC[C@H]4C(C)(C)[C@H](O)CC[C@@]42C)C1=O)C3=O
A. Non-toxic

Q. Entry to check: COC(=O)[C@H](CCC(=O)O)N1Cc2c(cc(O)c3c2O[C@]2(C3)[C@H](C)CC[C@H]3C(C)(C)[C@H](O)CC[C@@]32C)C1=O
A. Non-toxic

Q. Now the same for C[C@@H]1CC[C@H]2C(C)(C)[C@H](O)[C@H](O)C[C@]2(C)[C@@]12Cc1c(O)cc(CO[C@H]3O[C@H](CO)[C@@H](O)[C@H](O)[C@H]3O)c(C=O)c1O2
A. Non-toxic

Q. Please answer likewise for C[C@@H]1CC[C@H]2C(C)(C)[C@H](O)CC[C@]2(C)[C@@]12Cc1c(O)cc(CO)c(C=O)c1O2
A. Non-toxic

====

EXPERIMENTAL TARGET: Human immunodeficiency virus type 1 reverse transcriptase (Human immunodeficiency virus 1, UniProt Q72547)
PROTOCOL NOTES: Inhibition of HIV-1 reverse transcriptase after 1 hr by spectrophotometry
QUANTITY: pEC50
A value of pEC50 is the negative decimal logarithm of a concentration given in moles per litre.

Q. Which pEC50 is reported for this compound? CC(=O)CN1Cc2c(cc(O)c3c2O[C@]2(C3)[C@H](C)CC[C@H]3C(C)(C)[C@H](O)CC[C@@]32C)C1=O
A. 4.30
